B1: HEEH_KT_rd6_0790 (parent)
chain: SEEEEEEWRRAKERGEEIIILGILWKPNDEEAERRIKEALRRV

Variants of: B1
ASSAY DETAILS: folding stability dG (cDNA display proteolysis); higher = more stable
REPORTED CONDITIONS: PBS, room temperature
Provide the recorded folding stability dG for the entries that follow.
One number for each entry, in kcal/mol.

Illustrative cases are given below, each with its answer.
> print(dat)
   mutant.designation     reported.endpoint  units.label  observed
1                E31N  folding stability dG     kcal/mol      1.69
2                 E3D  folding stability dG     kcal/mol      2.35
3                K26E  folding stability dG     kcal/mol      1.26

// each listed variant needs a value for folding stability dG
1. E16M
2. R14K
3. V43M
4. E3N

[1.93, 2.12, 2.48, 2.36]

Count: 6. Required value per item: folding stability dG.
1. R9A
2. E2F
3. R9K
4. R35Q
5. E16N
6. E5I

[1.91, 2.7, 1.96, 2.14, 1.71, 1.95]

Provide folding stability dG for all items below, preserving their order.
1. E13T
2. G22E
3. E13D
4. E3M
5. R41L
6. S1D

1. 1.77
2. 1.12
3. 1.93
4. 2.24
5. 2.07
6. 2.12

For each of the variants below, state folding stability dG.
1. E31F
2. P27R

1. 1.49
2. 0.846

Each variant below has a reported value. Please supply its folding stability dG.
1. I19K
2. E16F

1.49
2.04

Quick batch: folding stability dG for everything below.
1. I23V
2. E6C
3. E4S
4. R42I
5. W25F
6. R10A
7. E33S

1.55
2.44
2.21
2
1.4
1.82
1.68

Provide the reported folding stability dG of each entry below, same order.
1. E4Y
2. I18W
3. W25I
4. E2P
5. E7K
6. K26V
7. E3V
8. E31G

[2.93, 1.67, 1.01, 2.21, 2.9, 2.06, 2.33, 1.61]

Look up folding stability dG for the entries below, preserving their order.
1. E17W
2. E31R
3. L24F
4. I18F
5. E2V
6. R35P

1: 2.29; 2: 1.38; 3: 1.64; 4: 2.1; 5: 2.33; 6: 0.078

For each of the variants below, note its folding stability dG.
1. G22L
2. W8L

[2.12, 1.95]
